meta.source: patent US20230357179A1

biological target: A-Raf kinase (Homo sapiens, UniProt P10398, Y301D/Y302D); construct: purchased Sigma; assay: Biochemical assay for A-Raf.1 (coupled pyruvate kinase/lactate dehydrogenase); details: read-out: ARAF.1 IC50
Sequence (P10398 with tags, fused parts or gaps Y301D/Y302D): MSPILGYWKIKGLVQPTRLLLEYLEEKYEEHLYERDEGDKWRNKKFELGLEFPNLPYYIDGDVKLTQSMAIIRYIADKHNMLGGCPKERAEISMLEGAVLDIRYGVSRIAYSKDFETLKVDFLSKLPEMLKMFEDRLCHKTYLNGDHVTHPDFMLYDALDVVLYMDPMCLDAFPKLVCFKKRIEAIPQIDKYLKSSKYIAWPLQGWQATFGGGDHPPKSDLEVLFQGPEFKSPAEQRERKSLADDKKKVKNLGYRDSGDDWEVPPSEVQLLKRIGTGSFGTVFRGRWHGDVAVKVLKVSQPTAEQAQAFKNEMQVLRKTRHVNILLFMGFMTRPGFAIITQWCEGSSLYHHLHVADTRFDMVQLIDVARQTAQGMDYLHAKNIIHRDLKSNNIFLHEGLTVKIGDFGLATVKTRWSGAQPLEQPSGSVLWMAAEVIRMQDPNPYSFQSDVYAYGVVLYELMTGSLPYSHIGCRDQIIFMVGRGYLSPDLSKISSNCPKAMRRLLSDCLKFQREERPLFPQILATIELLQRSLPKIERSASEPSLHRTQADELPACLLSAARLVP
Catalogue of IC50 values

smilesEntry: COC(=O)Nc1cc(-c2cnnc(-c3cccc(NC(=O)N4CC[C@H](OC)C4)c3)c2)ccn1
measuredTarget: A-Raf kinase (Homo sapiens, UniProt P10398, Y301D/Y302D)
IC50: > 1000 nM

smilesEntry: Cc1cc(F)c(NC(=O)NC2CCC(F)(F)CC2)cc1-c1cc(-c2cnn(C)c2)nc(N2CCOCC2)c1
measuredTarget: A-Raf kinase (Homo sapiens, UniProt P10398, Y301D/Y302D)
IC50: > 1000 nM

smilesEntry: COC[C@@H]1CCN(C(=O)Nc2cnc(C)c(-c3cc(OCCO)nc(-c4ccnc(NC(=O)OC)c4)c3)c2)C1
measuredTarget: A-Raf kinase (Homo sapiens, UniProt P10398, Y301D/Y302D)
IC50: > 1000 nM

smilesEntry: Cc1cc(F)c(NC(=O)NCCC(C)(C)F)cc1-c1ccnc(-c2ccnc(NC(=O)C3CC3)c2)n1
measuredTarget: A-Raf kinase (Homo sapiens, UniProt P10398, Y301D/Y302D)
IC50: 100 to 500 nM

smilesEntry: COC(=O)Nc1cc(-c2cccc(-c3cc(NC(=O)NCCC4(OC)CC4)cnc3C)c2)ncn1
measuredTarget: A-Raf kinase (Homo sapiens, UniProt P10398, Y301D/Y302D)
IC50: > 1000 nM

I'd like to know its IC50. The compound in question is COC(=O)Nc1cc(-c2cc(-c3cc(NC(=O)N4CCC(C)(C)CC4)cnc3C)cc(OCCO)n2)ccn1
> 1000 nM

I'd like to know its IC50. The compound in question is Cc1cc(F)c(NC(=O)NCC(C)C)cc1-c1cc(OCCO)nc(-c2ccnc(NC(=O)C3CC3)c2)c1
500 to 1000 nM
